Measured pKd by item
- system.under.test: T1, EsCas13d, nuclease-dead (Eubacterium siraeum, UniProt B0MS50, R295A;H300A;R849A;H854A)
- T1 sequence: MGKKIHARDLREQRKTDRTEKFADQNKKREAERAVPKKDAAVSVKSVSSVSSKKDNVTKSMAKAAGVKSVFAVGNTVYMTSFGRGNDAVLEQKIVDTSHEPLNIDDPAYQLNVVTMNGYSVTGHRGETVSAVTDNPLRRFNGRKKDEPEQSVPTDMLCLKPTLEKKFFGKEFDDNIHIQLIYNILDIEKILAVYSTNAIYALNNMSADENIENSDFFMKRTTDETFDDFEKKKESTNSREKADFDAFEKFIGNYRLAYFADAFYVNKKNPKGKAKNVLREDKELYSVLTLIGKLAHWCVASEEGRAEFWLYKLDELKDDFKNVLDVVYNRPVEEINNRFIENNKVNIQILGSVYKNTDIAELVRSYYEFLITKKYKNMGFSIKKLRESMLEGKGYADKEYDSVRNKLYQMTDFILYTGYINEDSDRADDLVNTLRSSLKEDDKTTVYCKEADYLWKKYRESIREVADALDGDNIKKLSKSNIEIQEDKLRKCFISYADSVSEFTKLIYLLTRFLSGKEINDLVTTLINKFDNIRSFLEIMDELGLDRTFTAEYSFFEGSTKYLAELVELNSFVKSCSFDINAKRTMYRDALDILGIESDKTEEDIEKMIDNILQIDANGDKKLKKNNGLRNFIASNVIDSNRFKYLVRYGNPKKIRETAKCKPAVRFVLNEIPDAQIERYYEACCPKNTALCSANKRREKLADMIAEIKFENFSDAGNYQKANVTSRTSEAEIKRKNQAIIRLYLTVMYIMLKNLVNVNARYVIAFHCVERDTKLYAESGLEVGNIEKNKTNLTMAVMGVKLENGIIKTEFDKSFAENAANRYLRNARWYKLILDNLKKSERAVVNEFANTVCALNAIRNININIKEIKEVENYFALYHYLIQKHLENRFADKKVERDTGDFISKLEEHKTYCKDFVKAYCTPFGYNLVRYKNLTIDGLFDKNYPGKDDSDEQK
- assay.method.text: crRNA (strand 1, pre-loaded); Mg2+; 40 mM Tris-HCl pH 7.5, 150 mM NaCl, 6 mM MgCl2, 1 mM DTT, 0.1% Tween-20, 0.2 mg/ml BSA; 25 C; 10 min per concentration, then washed
- protocol.conditions: tags: His6-TwinStrep-SUMO cleaved; N-terminal SNAP kept (SNAP-Surface 488); label: 3' end held by stalled T7 RNA polymerase
pKd: −log10 of the molar value.

Previously resolved entries follow.
| binder | reported |
| --- | --- |
| target 2 MT 5'PFS AAC 3'PFS CAU (mixed) RNA 1: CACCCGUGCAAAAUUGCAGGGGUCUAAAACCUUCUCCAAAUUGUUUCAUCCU RNA 2: GGGAAUGGAUCCACAUCUACGAAUUCAACAGGAUGAAACAAUUUGGAGAAGCAUAGAUCGGAAGAGCACACGU | ~8.10 |
| target 1 MT 5'PFS CUU 3'PFS ACC (mixed) RNA 1: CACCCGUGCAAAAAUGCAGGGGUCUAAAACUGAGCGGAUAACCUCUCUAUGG RNA 2: GGGAAUGGAUCCACAUCUACGAAUUCCUUCCAUAGAGAGGUUAUCCGCUCAACCAGAUCGGAAGAGCACACGU | ~7.62 |

Here's the next entry for you.
State its pKd for this binder: target 2 MT 5'PFS CGA 3'PFS ACC (mixed) RNA 1: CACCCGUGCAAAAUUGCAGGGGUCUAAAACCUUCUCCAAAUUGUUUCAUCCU RNA 2: GGGAAUGGAUCCACAUCUACGAAUUCCGAAGGAUGAAACAAUUUGGAGAAGACCAGAUCGGAAGAGCACACGU
~7.42
